Property: Activity; scope: individual molecules
Target: MAP kinase-interacting serine/threonine-protein kinase 2 (Homo sapiens)
Assay: Enzymatic radiometric [Km ATP] KinaseProfiler LeadHunter assay, kinase: Mnk2, catalogue number: 14-664KP The assay has been performed by Eurofins Discovery.
Details: ATP concentration 120.0 uM, Test compound concentration 10.0 uM
Reply with just the number (in %).

Cn1ncc(-c2cc3c(N[C@@H](c4ccc5c(n4)OCCO5)C(C)(C)C)ncnc3[nH]2)c1C#N    100

Endpoint output: Activity of COc1ccc([C@H](Cc2nnn[nH]2)NC(=O)c2ncnc3[nH]ccc23)cc1 . Value?
115

Same read-out for CC(C)[C@H](Nc1ncnc2[nH]ccc12)c1ccc2c(c1)S(=O)(=O)CCC2 ?
98

###

Target: CDK9/cyclin T1 (Homo sapiens) (UniProt O60563+P50750)
Test: Enzymatic radiometric [Km ATP] KinaseProfiler LeadHunter assay, kinase: CDK9/cyclin T1, catalogue number: 14-685KP The assay has been performed by Eurofins Discovery.
Type: protein-complex assay
Conditions: ATP concentration 45.0 uM, Test compound concentration 10.0 uM
Activity values for the compounds below.
Write down the numeric answer in % and omit the unit.

Example entries begin here.
CC(C)[C@@H](Nc1ncnc2[nH]ccc12)c1ccc2c(c1)S(=O)(=O)CCC2    114
COc1ccc([C@H](Cc2nnn[nH]2)NC(=O)c2ncnc3[nH]ccc23)cc1    109
CC(C)[C@H](Nc1ncnc2[nH]ccc12)c1ccc2c(c1)S(=O)(=O)CCC2    112
Cn1ncc(-c2cc3c(N[C@@H](c4ccc5c(n4)OCCO5)C(C)(C)C)ncnc3[nH]2)c1C#N    130

Continue with the next compound.
Recorded Activity for CC(C)[C@H](Nc1ncnc2[nH]c(-c3cnn(C)c3C#N)cc12)c1ccc2c(n1)OCCO2 , please?
79

###

Reported Activity values follow for various compounds
Molecular target: Ribosomal protein S6 kinase beta-1 (Homo sapiens)
Test: Enzymatic radiometric [Km ATP] KinaseProfiler LeadHunter assay, kinase: p70S6K, catalogue number: 14-486KP The assay has been performed by Eurofins Discovery.
Settings: ATP concentration 15.0 uM, Test compound concentration 10.0 uM
Respond with the bare value in %.

Worked examples, 2 compounds total:
COc1ccc([C@H](Cc2nnn[nH]2)NC(=O)c2ncnc3[nH]ccc23)cc1    113
CNCc1cc(-c2cc3c(N[C@@H](c4ccc5c(c4)S(=O)(=O)CCC5)C(C)C)ncnc3[nH]2)co1    110

From here, focus on the item given below.
I have this compound here, CC(C)[C@@H](Nc1ncnc2[nH]c(C(=O)N[C@@H]3CCN(C)C3)cc12)c1ccc2c(c1)S(=O)(=O)CCC2 , and I need its recorded Activity.
104

###

Molecular target: Mitogen-activated protein kinase 14 (Homo sapiens)
Experiment: Enzymatic radiometric [Km ATP] KinaseProfiler LeadHunter assay, kinase: SAPK2a, catalogue number: 14-251KP The assay has been performed by Eurofins Discovery.
Conditions: ATP concentration 90.0 uM, Test compound concentration 10.0 uM
metric: Activity

Examples from the recorded data:
CNCc1cc(-c2cc3c(N[C@@H](c4ccc5c(c4)S(=O)(=O)CCC5)C(C)C)ncnc3[nH]2)co1    97%
Cn1ncc(-c2cc3c(N[C@@H](c4ccc5c(n4)OCCO5)C(C)(C)C)ncnc3[nH]2)c1C#N    106%
CC(C)[C@@H](Nc1ncnc2[nH]ccc12)c1ccc2c(c1)S(=O)(=O)CCC2    108%
COc1ccc([C@H](Cc2nnn[nH]2)NC(=O)c2ncnc3[nH]ccc23)cc1    103%

Now for the compound whose Activity we want.
What is its Activity for Mitogen-activated protein kinase 14 (Homo sapiens)? Entry: Cc1nn(C)cc1-c1cc2c(N[C@H](c3ccc4c(c3)S(=O)(=O)CCC4)C(C)C)ncnc2[nH]1
98%
